Assign MRT to each entry below.
Assay: Mean residence time in mouse
Type: ADME, organism-based
Conditions: in vivo
Reply numerically in h, unit not repeated.

Supply MRT value. Item: CCC1(CC)CC(=O)N([C@@H]2CCOc3ccc(C(=O)N[C@H]4CC(C)(C)Oc5ccccc54)cc32)C(=N)N1
2.5

Supply MRT value. Item: CCC1(CC)CC(=O)N([C@@H]2CCOc3ccc(C(=O)NC4CCOc5ccccc54)cc32)C(=N)N1 (single isomer, unassigned)
1.3

Supply MRT value. Item: CCC[C@H](c1cccc(C(=O)N[C@H]2CCOc3ccccc32)c1)N1C(=N)NC(CC)(CC)CC1=O
1.1

====

Test system: Plasmodium falciparum
Assay: Antimalarial activity against asexual blood stage Plasmodium falciparum infected in RBC measured after 72 hrs by LDH release assay
Assay type: functional, organism-based
Conditions: Erythrocyte
Assign pEC50 to each entry below.
Friendly reminder that pEC50 comes from taking -log10 of the concentration in mol/L.

Supply pEC50 value. Item: CCC1(CC)CC(=O)N([C@H](c2ccccc2)c2cccc(C(=O)N[C@@H](C)c3ccccc3)c2)C(=N)N1
9.00

Supply pEC50 value. Item: CC(C)[C@]1(C)CC(=O)N(Cc2cccc(C(=O)NC3CCCc4ccccc43)c2)C(=N)N1 (mixture of isomers)
7.17

Supply pEC50 value. Item: CC(C)[C@]1(C)CC(=O)N(Cc2cccc(C(=O)N[C@@H](C)c3ccccc3)c2)C(=N)N1
6.51

Supply pEC50 value. Item: CC(C)[C@]1(C)CC(=O)N(Cc2cccc(C(=O)N[C@H]3CCOc4ccccc43)c2)C(=N)N1
8.82

Supply pEC50 value. Item: CC(C)[C@]1(C)CC(=O)N(Cc2cccc(C(=O)NC3COCc4ccccc43)c2)C(=N)N1 (mixture of isomers)
7.28

Supply pEC50 value. Item: CCC1(CC)CC(=O)N(Cc2cc(C(=O)N[C@H]3CCOc4ccccc43)cnn2)C(=N)N1
6.77

Supply pEC50 value. Item: CCC1(CC)CC(=O)N(Cc2cccc(C(=O)N[C@@H](C)c3ccccc3)c2)C(=N)N1
6.94

Supply pEC50 value. Item: CCC1(CC)CC(=O)N([C@@H]2CCOc3ccc(C(=O)N[C@H]4CC(C)(C)Oc5ccccc54)cc32)C(=N)N1
9.40

Supply pEC50 value. Item: CCC1(CC)CC(=O)N([C@@H]2CCOc3ccc(C(=O)NC4CCOc5ccccc54)cc32)C(=N)N1 (single isomer, unassigned)
8.60

Supply pEC50 value. Item: CCC1(CC)CC(=O)N(Cc2cncc(C(=O)N[C@H]3CCOc4ccccc43)c2)C(=N)N1
8.00

Supply pEC50 value. Item: CCC[C@H](c1cccc(C(=O)N[C@H]2CCOc3ccccc32)c1)N1C(=N)NC(CC)(CC)CC1=O
9.40

Supply pEC50 value. Item: CC(C)[C@]1(C)CC(=O)N([C@H](c2ccccc2)c2cccc(C(=O)N[C@@H](C)c3ccccc3)c2)C(=N)N1
8.34

====

Assay: Apparent permeability across apical to basolateral side in MDCK cells
Assay type: ADME, cell-based, Canis lupus familiaris
Conditions: dog
readout type: Papp A→B

Supply Papp A→B value. Item: CCC1(CC)CC(=O)N([C@@H]2CCOc3ccc(C(=O)NC4CCOc5ccccc54)cc32)C(=N)N1 (single isomer, unassigned)
88 nm/s

Supply Papp A→B value. Item: CCC[C@H](c1cccc(C(=O)N[C@H]2CCOc3ccccc32)c1)N1C(=N)NC(CC)(CC)CC1=O
163 nm/s

====

Tested on: Plasmodium falciparum
Assay: Antimalarial activity against asexual blood stage Plasmodium falciparum infected in RBC measured after 72 hrs by LDH release assay
Type: functional, organism-based
Settings: Erythrocyte
Assign pEC50 to each entry below.
Friendly reminder that pEC50 comes from taking -log10 of the concentration in mol/L.

Supply pEC50 value. Item: CCC1(CC)CC(=O)N([C@@H]2CCOc3ccc(C(=O)N[C@H]4CCS(=O)(=O)c5ccccc54)cc32)C(=N)N1
7.74

Supply pEC50 value. Item: CCC1(CC)CC(=O)N(Cc2cccc(C(=O)N[C@H]3CCOc4ccccc43)n2)C(=N)N1
6.96

Supply pEC50 value. Item: CC(C)CC(c1ccc(C(F)(F)F)c(C(=O)N2Cc3nccnc3C2)c1)N1C(=N)N[C@](CC2CC2)(c2ccccc2)CC1=O (stereo not given in full)
7.77

Supply pEC50 value. Item: CCC1(CC)CC(=O)N(Cc2ccnc(C(=O)N[C@H]3CCOc4ccccc43)c2)C(=N)N1
7.77

Supply pEC50 value. Item: C[C@H](NC(=O)c1cc(F)cc(CN2C(=N)N[C@@](CC3CC3)(c3ccccc3)CC2=O)c1)c1ccccc1
7.66

Supply pEC50 value. Item: CCC1(CC)CC(=O)N(Cc2cccc(C(=O)N[C@H]3CCOc4ccccc43)c2)C(=N)N1
9.40

Supply pEC50 value. Item: CCC1(CC)CC(=O)N([C@H](c2cccnc2)c2cccc(C(=O)N[C@@H](C)c3ccccc3)c2)C(=N)N1
9.00

Supply pEC50 value. Item: CCC1(CC)CC(=O)N([C@H](CCN2CCCC2)c2cccc(C(=O)N[C@@H](C)c3ccccc3)c2)C(=N)N1
8.06

Supply pEC50 value. Item: CCC1(CC)CC(=O)N(C(c2cccc(C(=O)N[C@@H](C)c3ccccc3)c2)C2CC2)C(=N)N1 (mixture of isomers)
6.80

Supply pEC50 value. Item: CC(C)[C@]1(C)CC(=O)N(Cc2cc(F)cc(C(=O)N[C@@H](C)c3ccccc3)c2)C(=N)N1
6.47

Supply pEC50 value. Item: CC(C)[C@]1(C)CC(=O)N(Cc2cccc(C(=O)NC3CCc4ccccc43)c2)C(=N)N1 (mixture of isomers)
7.18

Supply pEC50 value. Item: CCC1(CC)CC(=O)N([C@@H]2CCOc3ccc(C(=O)N[C@H]4CCCOc5ccccc54)cc32)C(=N)N1
8.55

Supply pEC50 value. Item: CCC1(CC)CC(=O)N(Cc2cc(C(=O)N[C@H]3CCOc4ccccc43)ccn2)C(=N)N1
7.92

====

Experiment: Plasma clearance in rat
Type: ADME
readout type: clearance

Supply clearance value. Item: CCC1(CC)CC(=O)N([C@@H]2CCOc3ccc(C(=O)NC4CCOc5ccccc54)cc32)C(=N)N1 (single isomer, unassigned)
79 mL/min/kg

Supply clearance value. Item: CCC1(CC)CC(=O)N([C@@H]2CCOc3ccc(C(=O)N[C@H]4CC(C)(C)Oc5ccccc54)cc32)C(=N)N1
42 mL/min/kg

Supply clearance value. Item: CCC[C@H](c1cccc(C(=O)N[C@H]2CCOc3ccccc32)c1)N1C(=N)NC(CC)(CC)CC1=O
103 mL/min/kg

====

Assign bioavailability to each entry below.
Experiment: Oral bioavailability in rat
Assay type: ADME, organism-based
Conditions: in vivo
Please provide the amount together with its unit, number first.

Supply bioavailability value. Item: CCC1(CC)CC(=O)N([C@@H]2CCOc3ccc(C(=O)N[C@H]4CC(C)(C)Oc5ccccc54)cc32)C(=N)N1
8%

Supply bioavailability value. Item: CCC[C@H](c1cccc(C(=O)N[C@H]2CCOc3ccccc32)c1)N1C(=N)NC(CC)(CC)CC1=O
6%

Supply bioavailability value. Item: CCC1(CC)CC(=O)N([C@@H]2CCOc3ccc(C(=O)NC4CCOc5ccccc54)cc32)C(=N)N1 (single isomer, unassigned)
27%

====

Target: Plasmepsin X (Plasmodium falciparum (isolate 3D7), UniProt Q8IAS0)
Sequence (Q8IAS0 whole entry): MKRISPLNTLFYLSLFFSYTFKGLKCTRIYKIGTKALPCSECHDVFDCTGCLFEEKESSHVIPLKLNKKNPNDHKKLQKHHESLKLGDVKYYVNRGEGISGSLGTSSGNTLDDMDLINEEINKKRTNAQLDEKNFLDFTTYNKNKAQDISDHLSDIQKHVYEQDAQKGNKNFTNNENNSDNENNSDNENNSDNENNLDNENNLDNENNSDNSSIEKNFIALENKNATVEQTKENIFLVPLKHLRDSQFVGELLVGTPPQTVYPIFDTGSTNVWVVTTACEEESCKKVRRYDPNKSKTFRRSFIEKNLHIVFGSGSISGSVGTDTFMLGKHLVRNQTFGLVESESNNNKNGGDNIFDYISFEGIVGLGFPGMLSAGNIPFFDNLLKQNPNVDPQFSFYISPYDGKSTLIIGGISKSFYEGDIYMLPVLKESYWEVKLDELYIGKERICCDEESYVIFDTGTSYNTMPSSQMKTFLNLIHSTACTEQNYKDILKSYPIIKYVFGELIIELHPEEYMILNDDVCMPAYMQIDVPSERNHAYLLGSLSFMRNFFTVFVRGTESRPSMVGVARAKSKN
Assay: Inhibition of Plasmodium falciparum 3D7 HA-glms-tagged PMX using DABCYL-HSFIQEGKEE-EDANS as substrate measured after 2 hrs by FRET assay
Assign pIC50 to each entry below.
Friendly reminder that pIC50 comes from taking -log10 of the concentration in mol/L.

Supply pIC50 value. Item: CC(C)[C@]1(C)CC(=O)N([C@H](c2ccccc2)c2cccc(C(=O)N[C@@H](C)c3ccccc3)c2)C(=N)N1
8.72

Supply pIC50 value. Item: CCC1(CC)CC(=O)N([C@@H]2CCOc3ccc(C(=O)N[C@H]4CC(C)(C)Oc5ccccc54)cc32)C(=N)N1
10.52

Supply pIC50 value. Item: CCC[C@H](c1cccc(C(=O)N[C@H]2CCOc3ccccc32)c1)N1C(=N)NC(CC)(CC)CC1=O
10.22

Supply pIC50 value. Item: CCC1(CC)CC(=O)N([C@@H]2CCOc3ccc(C(=O)N[C@H]4CCS(=O)(=O)c5ccccc54)cc32)C(=N)N1
9.52

====

System: Plasmodium falciparum
Assay: Antimalarial activity against asexual blood stage Plasmodium falciparum infected in RBC measured after 72 hrs by LDH release assay
Format: functional, organism-based
Conditions: Erythrocyte
readout type: EC50

Supply EC50 value. Item: CCC1(CC)NC(=N)N(Cc2cc(F)cc(C(=O)N[C@@H](C)c3ccccc3)c2)C1=O
> 1000 nM

Supply EC50 value. Item: CCNC(=O)c1cccc(CN2C(=N)N[C@](C)(C(C)C)CC2=O)c1
> 1000 nM

Supply EC50 value. Item: C[C@H](NC(=O)c1cc(F)cc(CN2C(=N)N[C@]3(C)CCCC[C@]3(C)C2=O)c1)c1ccccc1
> 1000 nM

Supply EC50 value. Item: C[C@H](NC(=O)c1cc(F)cc(CN2C(=N)NC(c3ccccc3)CC2=O)c1)c1ccccc1 (single isomer, unassigned)
> 1000 nM
